Values from ChEMBL document CHEMBL3085683

biological target: Amyloid-beta precursor protein (Homo sapiens, UniProt P05067)
Sequence (P05067 whole entry): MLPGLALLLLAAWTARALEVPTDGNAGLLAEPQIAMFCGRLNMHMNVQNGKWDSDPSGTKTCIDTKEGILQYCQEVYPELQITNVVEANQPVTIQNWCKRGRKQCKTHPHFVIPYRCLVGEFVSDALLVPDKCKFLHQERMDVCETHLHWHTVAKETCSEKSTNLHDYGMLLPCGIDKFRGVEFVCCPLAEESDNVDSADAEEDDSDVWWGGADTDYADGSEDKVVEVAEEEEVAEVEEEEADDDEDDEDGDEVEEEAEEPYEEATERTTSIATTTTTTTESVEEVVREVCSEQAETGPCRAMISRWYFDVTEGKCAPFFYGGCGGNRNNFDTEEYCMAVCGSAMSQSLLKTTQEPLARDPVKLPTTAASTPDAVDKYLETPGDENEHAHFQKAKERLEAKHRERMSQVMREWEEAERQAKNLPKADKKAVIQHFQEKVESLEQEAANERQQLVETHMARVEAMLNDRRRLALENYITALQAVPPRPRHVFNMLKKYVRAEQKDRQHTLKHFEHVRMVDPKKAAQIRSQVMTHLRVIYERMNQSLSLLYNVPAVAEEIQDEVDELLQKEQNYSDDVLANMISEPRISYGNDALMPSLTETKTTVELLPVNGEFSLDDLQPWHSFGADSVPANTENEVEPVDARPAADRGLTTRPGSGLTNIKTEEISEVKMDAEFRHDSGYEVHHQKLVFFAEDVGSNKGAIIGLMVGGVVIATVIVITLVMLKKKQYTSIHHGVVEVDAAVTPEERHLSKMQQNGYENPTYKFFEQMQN
RECORDED METRIC: pIC50
Numbers only, as −log10 of the molar value.

{"MOLECULE": "COc1ccc2c(c1)c(CC(=O)NCCCNCCCNC1=CC(=O)C(NCCCNCCCNC(=O)Cc3c(C)n(C(=O)c4ccc(Cl)cc4)c4ccc(OC)cc34)=CC1=O)c(C)n2C(=O)c1ccc(Cl)cc1", "pIC50": 5.21}
{"MOLECULE": "CC(C(=O)NCCCNCCCNC1=CC(=O)c2ccccc2C1=O)c1ccc(-c2ccccc2)c(F)c1 (stereo not drawn)", "pIC50": 5.16}

Now consider the entry below.
Please report the measured pIC50 for O=C(Cc1ccccc1Nc1c(Cl)cccc1Cl)NCCCNCCCNC1=CC(=O)C(NCCCNCCCNC(=O)Cc2ccccc2Nc2c(Cl)cccc2Cl)=CC1=O
5.50

---

system: HEK293; test: Cytotoxicity against HEK293 cells assessed as reduction in cell viability up to 10 uM by MTT assay; type: cell-based; settings: human
RECORDED METRIC: Activity

{"COMPOUND": "O=C(Cc1ccccc1Nc1c(Cl)cccc1Cl)NCCCNCCCNC1=CC(=O)C(NCCCNCCCNC(=O)Cc2ccccc2Nc2c(Cl)cccc2Cl)=CC1=O", "RECORDED METRIC": "Activity", "OBS VALUE": "Non-toxic"}
{"COMPOUND": "C[C@H](C(=O)NCCCNCCCNC1=CC(=O)C(NCCCNCCCNC(=O)[C@@H](C)c2ccc(-c3ccccc3)c(F)c2)=CC1=O)c1ccc(-c2ccccc2)c(F)c1", "RECORDED METRIC": "Activity", "OBS VALUE": "Toxic"}
{"COMPOUND": "C[C@@H](C(=O)NCCCNCCCNC1=CC(=O)C(NCCCNCCCNC(=O)[C@H](C)c2ccc(-c3ccccc3)c(F)c2)=CC1=O)c1ccc(-c2ccccc2)c(F)c1", "RECORDED METRIC": "Activity", "OBS VALUE": "Non-toxic"}
{"COMPOUND": "CC(C(=O)NCCCNCCCNC1=CC(=O)c2ccccc2C1=O)c1ccc(-c2ccccc2)c(F)c1 (centres undefined)", "RECORDED METRIC": "Activity", "OBS VALUE": "Non-toxic"}

---

molecular target: Amyloid-beta precursor protein (Homo sapiens, UniProt P05067); assay: Inhibition of amyloid beta (1 to 42) aggregation (unknown origin) at 10 uM by thioflavin T fluorescence method
Field: inhibition. Provide a value for each of the molecules that follow.
Please state the number and follow it with the unit.

# example entries with known answers
{"MOLECULE": "CC(C(=O)NCCCNCCCNC1=CC(=O)c2ccccc2C1=O)c1ccc(-c2ccccc2)c(F)c1 (stereo not drawn)", "inhibition": "76.4%"}
{"MOLECULE": "CC1=C(CC(=O)NCCCNCCCNC2=CC(=O)C(NCCCNCCCNC(=O)CC3=C(C)/C(=C\\c4ccc([S+](C)[O-])cc4)c4ccc(F)cc43)=CC2=O)c2cc(F)ccc2/C1=C/c1ccc([S+](C)[O-])cc1 (stereo not drawn)", "inhibition": "55%"}

Give inhibition for the following molecule: COc1ccc2c(c1)c(CC(=O)NCCCNCCCNC1=CC(=O)C(NCCCNCCCNC(=O)Cc3c(C)n(C(=O)c4ccc(Cl)cc4)c4ccc(OC)cc34)=CC1=O)c(C)n2C(=O)c1ccc(Cl)cc1
80.1%
